Catalogue of binders with associated EC50
Target: T1, full-length beta-Catenin (Uniprot ID P35222) (Homo sapiens (Human), UniProt P35222 1-781)
T1 construct: The assay protocols call it full-length; also called B-Catenin; bCat
T1 sequence: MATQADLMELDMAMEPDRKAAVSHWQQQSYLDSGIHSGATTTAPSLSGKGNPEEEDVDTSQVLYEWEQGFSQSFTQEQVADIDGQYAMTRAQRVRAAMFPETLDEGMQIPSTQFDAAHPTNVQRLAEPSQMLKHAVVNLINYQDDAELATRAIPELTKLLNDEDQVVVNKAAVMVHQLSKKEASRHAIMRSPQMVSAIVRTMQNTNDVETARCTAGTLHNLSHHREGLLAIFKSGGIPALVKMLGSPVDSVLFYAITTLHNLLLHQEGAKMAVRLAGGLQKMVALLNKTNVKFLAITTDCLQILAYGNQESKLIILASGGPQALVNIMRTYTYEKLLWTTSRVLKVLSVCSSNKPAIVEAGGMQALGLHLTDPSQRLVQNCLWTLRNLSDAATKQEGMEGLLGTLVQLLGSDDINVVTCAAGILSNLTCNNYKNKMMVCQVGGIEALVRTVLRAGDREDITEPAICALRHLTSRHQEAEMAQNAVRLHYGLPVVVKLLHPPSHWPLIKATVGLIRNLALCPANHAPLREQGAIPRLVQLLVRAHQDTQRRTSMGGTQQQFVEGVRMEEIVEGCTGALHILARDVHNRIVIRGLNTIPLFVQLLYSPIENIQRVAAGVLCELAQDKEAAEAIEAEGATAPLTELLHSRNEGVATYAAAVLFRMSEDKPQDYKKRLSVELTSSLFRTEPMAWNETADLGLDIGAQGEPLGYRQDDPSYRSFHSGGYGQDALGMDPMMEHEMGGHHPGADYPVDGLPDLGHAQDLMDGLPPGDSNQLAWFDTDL
Assay: AlphaScreen competition; full-length beta-catenin with biotin-labelled TCF4 10-53 peptide as competitor
Starred links: 1 amine or outer side, 2 acyl side, 3 side chain; linkers in the order of their positions; H or OH if unused. Positions of bridges follow the written chain, without caps; N, C: chain ends. Non-standard residues stand in square brackets, D forms with d. Primed or numbered codes have the meaning given here. B5(4) = 2,2-bis(4-pentenyl)glycine = 2-amino-2-(pent-4-en-1-yl)hept-6-enoic acid (stitching residue), C=CCCCC(CCCC=C)(N[*:1])C(=O)[*:2]; 6F1NapA = 2-amino-3-(6-fluoronaphthalen-1-yl)propanoic acid, O=C([C@H](Cc1cccc2cc(F)ccc12)N[*:1])[*:2]; B5 = 2-amino-2-(pent-4-en-1-yl)hept-6-enoic acid, C=CCCCC(CCCC=C)(N[*:1])C(=O)[*:2]; Phe(3-F) = N[C@@H](Cc1cccc(F)c1)C(=O)O; Phe(4-F) = N[C@@H](Cc1ccc(F)cc1)C(=O)O; αAllylPro = C=CC[C@@]1(C(=O)O)CCCN1; S8 = C=CCCCCCC[C@](C)(N)C(=O)O
Answer in nM, number only, no unit symbol.

Solved entries (count: 3):
| BINDER | PROPERTY NAME | READOUT NUMBER |
| --- | --- | --- |
| XDAXDDAAFAXFWA (not fully specified; N-terminal Ac; PL3 at 1; B5 at 4; S8 at 11; C-terminal NH2; staples PL3(1)-B5(4) and B5(4)-S8(11) by olefin metathesis, Stapled (stitched) peptide; also called Ac-PL3-Asp-Ala-B5-Asp-Asp-Ala-Ala-Phe-Ala-S8-Phe-Trp-Ala-NH2) [I-286] | EC50 | 450 |
| Ac-[αAllylPro]DA[B5(4)]DDAAFV[S8][Phe(3-F)]WQ-NH2 (staple 1-4, 4-11, Stapled (stitched) peptide; also called Ac-PL3-Asp-Ala-B5-Asp-Asp-Ala-Ala-Phe-Val-S8-3FF-Trp-Gln-NH2) [I-260] | EC50 | 683 |
| Ac-[αAllylPro]DA[B5]D[Phe(4-F)]AAFV[S8]FWQ-NH2 (staple 1-4, 4-11, Stapled (stitched) peptide; also called Ac-PL3-Asp-Ala-B5-Asp-4FF-Ala-Ala-Phe-Val-S8-Phe-Trp-Gln-NH2) [I-258] | EC50 | 2920 |

Note EC50 for the binder shown: Ac-[αAllylPro]DA[B5(4)]D[6F1NapA]AAFV[S8]FWQ-NH2 (staple 1-4, 4-11, Stapled (stitched) peptide; also called Ac-PL3-Asp-Ala-B5-Asp-6F1NapA-Ala-Ala-Phe-Val-S8-Phe-Trp-Gln-NH2) [I-256]
9210

Note EC50 for the binder shown: Ac-[αAllylPro]DA[B5(4)]DDAA[Phe(4-F)]V[S8]FWQ-NH2 (staple 1-4, 4-11, Stapled (stitched) peptide; also called Ac-PL3-Asp-Ala-B5-Asp-Asp-Ala-Ala-4FF-Val-S8-Phe-Trp-Gln-NH2) [I-266]
318

Note EC50 for the binder shown: Ac-[αAllylPro]DA[B5(4)]DDAAFV[S8][Phe(4-F)]WQ-NH2 (staple 1-4, 4-11, Stapled (stitched) peptide; also called Ac-PL3-Asp-Ala-B5-Asp-Asp-Ala-Ala-Phe-Val-S8-4FF-Trp-Gln-NH2) [I-261]
347
